As shown below, each of these molecules has a reported IC50 value.
tested on: PC-9 (EGFR exon 19 deletion); assay: Cell antiproliferative assay (CTG, 72 h), PC-9; format: cell-based, human; conditions: Homo sapiens, PC-9, 72 h, Table 2, PC-9 cells
Quantity Measured: IC50

INSERT INTO results (molecule, tested_target, val) VALUES
  ('COc1cc(N2CCC(N(C)C(=O)CN3CCC(c4ccc(NC5CCC(=O)NC5=O)cc4)CC3)CC2)ccc1Nc1ncc(C(F)(F)F)c(Nc2ccccc2C(C)=O)n1 (stereo not drawn)', 'PC-9 (EGFR exon 19 deletion)', '100 to 1000 nM'),
  ('COc1nc(N2CCN(C(=O)CN3CCC(c4ccc(NC5CCC(=O)NC5=O)cc4)CC3)CC2)ccc1Nc1ncc(Cl)c(Nc2ccccc2P(C)(C)=O)n1 (stereo not drawn)', 'PC-9 (EGFR exon 19 deletion)', '100 to 1000 nM'),
  ('COc1cc(N2CCC(N3CCN(C(=O)C4CCN(CC5CCN(c6ccc7c(c6)C(=O)N(C6CCC(=O)NC6=O)C7=O)CC5)CC4)CC3)CC2)ccc1Nc1ncc(Cl)c(Nc2ccccc2P(C)(C)=O)n1 (stereo not drawn) [Comparative Compound 2, reference compound]', 'PC-9 (EGFR exon 19 deletion)', '≥ 1000 nM'),
  ('COc1cc(N2CCN(C(=O)CN3CCC(c4ccc(NC5CCC(=O)NC5=O)cc4)CC3)CC2)ccc1Nc1ncc(Br)c(Nc2cccc3c2C(=O)NC3)n1 (stereo not drawn)', 'PC-9 (EGFR exon 19 deletion)', '10 to 100 nM'),
  ('CNC(=O)c1ccccc1Nc1nc(Nc2ccc(N3CCN(C(=O)CN4CCC(c5ccc(NC6CCC(=O)NC6=O)cc5)CC4)CC3)cc2OC)ncc1Cl (stereo not drawn)', 'PC-9 (EGFR exon 19 deletion)', '100 to 1000 nM'),
  ('COc1cc(N2CCN(C(=O)CN3CCC(c4ccc(NC5CCC(=O)NC5=O)cc4)CC3)CC2)c(C)cc1Nc1ncc(Cl)c(Nc2ccccc2P(C)(C)=O)n1 (stereo not drawn)', 'PC-9 (EGFR exon 19 deletion)', '100 to 1000 nM');
